Sourced from the domain aggregation screens of Martell et al. (2025)

experiment: soluble fraction after stress (log2 fold change); higher = more stays soluble; pooled small domains, quantitative proteomics; conditions: stress: pH 4
Classify as follows. Reported soluble fraction (log2) greater than or equal to -0.4: Yes. Reported soluble fraction (log2) below: No.

- SEQ: "HMAVKNAQIDVQQFFYSKSGEVDFGRKIKAIQSHFTPERLQSFTAAVPPSQWVSQLQVMWDSL"
  QUALITATIVE LABEL: "No"
- SEQ: "HMNLLDYDFFEKMSSKEQEEIVEKVYIDFLNKSTGTNSPFYLKLFEKGKKSYIVNWLNENNF"
  QUALITATIVE LABEL: "No"
- SEQ: "HMGRELSDLELSLLRILDDKIPLLIDEAADRLQLPVAQVLSAVTIMEIDGLIRREGMRKYLRTVEVEETK"
  QUALITATIVE LABEL: "No"
- SEQ: "HMSQTDTDAKDARQKILALLSDGEWHQKTELLKIDAPKEAVSNAIRYLVLEELISIDHAKVRA"
  QUALITATIVE LABEL: "No"

For this sequence, is measured soluble fraction (log2) -0.4 or higher? HMEINEDEIYEKIMIEIEQDNKVKSTWAKALSQSDGNKDKAESLYISMRFEELKYHQSYQKEELNLKDNQQ No

For this sequence, is measured soluble fraction (log2) -0.4 or higher? HMIIVMKRNATETQIDHVVRWVESIGYRAHRSNGTEQTVVKAVGGERGGEELKYLAALSGVEKVVPIR Yes
